System: T. cruzi intracellular amastigotes in H9c2 cells
Procedure details: Rate-of-Kill (RoK) high-content imaging assay, amastigotes per cell (AM/CELL) and curve descriptors
Assay type: cell-based, Trypanosoma cruzi
Condition parameters: maximum effect at 72 h, RoK assay
The label 1 is reserved for ME_72h (%) strictly under 40%; 0 covers values equal to or above it.

Here's an entry: Cc1c(C#N)c([N+](=O)[O-])nn1Cc1cccc(Cl)c1Cl [TCMDC-143152] . Is its ME_72h (%) below 40%? 0

Follow-up item: Cc1nc2nc(C)c(Cc3ccc(C(C)C)cc3)c(=O)n2[nH]1 [TCMDC-143087] 0

Follow-up item: CCN(CC)S(=O)(=O)c1ccc(C(=O)Nc2cc(C)nn2-c2nc(C)c(C)c(=O)[nH]2)cc1 [TCMDC-143273] 1

Follow-up item: CCCCNc1nccc(-c2c(-c3ccc(F)cc3)nn3c(N4CCOCC4)cccc23)n1 [TCMDC-143617] 1

Follow-up item: O=C(CN(c1cccc(C(F)(F)F)c1)S(=O)(=O)c1ccc(Cl)cc1)NCc1ccc(F)c(F)c1 [TCMDC-143548] 1

Follow-up item: COc1ccc(C(C)(C)C)cc1S(=O)(=O)n1ccnc1 [TCMDC-143275] 1

Follow-up item: CC(C)N(C(=O)CN1C(=O)C(N)C(=O)N(c2ccccc2)c2ccccc21)c1ccccc1 (centres unmarked) [TCMDC-143071] 0

Follow-up item: CC1CN(S(=O)(=O)c2ccc(NC(=O)c3cc(C4CC4)nc4c3cnn4C(C)C)cc2)CC(C)O1 (centres unmarked) [TCMDC-143200] 0

Follow-up item: COc1cc(NC(=O)Nc2cccc(CNC(=O)OC3CCCCC3)c2)ccc1-c1cnco1 [TCMDC-143376] 1

Follow-up item: CCCn1c(NC(=O)Cc2ccc(Cl)cc2)nc2ccccc21 [TCMDC-143279] 1

Follow-up item: CC1CS(=O)(=O)CCN1/N=C/c1ccc([N+](=O)[O-])o1 (centres unmarked) [Nifurtimox, nifurtimox, reference compound] 0

###

Tested on: T. cruzi Tulahuen trypomastigotes
Procedure details: T. cruzi trypomastigote assay (Cell Titer-Glo viability, ATP luminescence)
Format: cell-based, Trypanosoma cruzi
Condition parameters: trypomastigote assay, 48 h; figure 1A
Experimental endpoint: 48 pIC50

Given the entry CC(Cn1ccnc1)NC(=O)C=Cc1ccc(Cl)cc1 (stereo not drawn) , report its measured 48 pIC50. < 4.3

Follow-up item: CCCN1CCN(Cc2ccc(S(=O)(=O)Nc3cccc(C)c3)cc2)CC1.O=C(O)C(F)(F)F.O=C(O)C(F)(F)F < 4.3

Follow-up item: CC1=C(C(=O)Nc2ccc(Cl)cc2)C(c2ccncc2)n2ncc(C(=O)Nc3ccccc3)c2N1 (stereo not drawn) < 4.3

Follow-up item: CCCC(=O)N(Cc1ccccn1)c1nc2ccccc2s1 < 4.3

Follow-up item: O=[N+]([O-])c1cccc(Nc2cncc(-c3ccccc3CO)c2)c1 < 4.3

Follow-up item: COc1ccc2nc(N(Cc3cccnc3)C(=O)C3CCC3)sc2c1 < 4.3

Follow-up item: N#Cc1cccc(CN2CCC(c3nc(-c4ccc(C(F)(F)F)nc4)no3)CC2)c1 < 4.3

Follow-up item: O=C(NCCc1ccccn1)C(c1cn[nH]c1)N1CCN(c2ccc(Cl)c(Cl)c2)CC1 (stereo not drawn) < 4.3

Follow-up item: O=C1CCCCCC1(Cc1cnc[nH]1)c1ccc(Cl)cc1Cl (stereo not drawn) < 4.3

Follow-up item: CN(C)CCN(C)Cc1ccc(F)cc1NS(=O)(=O)c1ccc(Cl)c(Cl)c1 5.9

Follow-up item: COc1cc(C(C)C)c(S(C)(=O)=O)cc1C(=O)N1CCN(c2ccccc2Cl)CC1 < 4.3

Follow-up item: CC(C)c1cc(C(=O)N2CCCC(c3cc4ncccc4[nH]3)C2)on1 (stereo not drawn) 5.3

Follow-up item: c1cc(-c2ncc(-c3ccn[nH]3)s2)ccn1 < 4.3

Follow-up item: COc1ccc(C)cc1-c1csc(NC(=O)C(C)n2ccnc2)n1 (stereo not drawn) < 4.3

Follow-up item: CCC1Oc2cc(S(=O)(=O)N(C)CC(=O)N3CCc4ccccc4C3)c(C)cc2NC1=O (stereo not drawn) < 4.3

Follow-up item: COc1ccc(C(=O)N2CCC(Nc3cccnc3)C2)c(OC)n1 (stereo not drawn) < 4.3

Follow-up item: N#Cc1c(Oc2cccc(Cl)c2)cccc1[N+](=O)[O-] 6.9

Follow-up item: O=C(NCCc1cccnc1)c1csc(-c2ccccc2)n1 < 4.3

Source: paper PMC8318231
